Data origin: paper PMC11969024

B1: peptide HD2 (from tick evasin EVA4) / CXCL11 (biotinylated, synthetic) (parent)
chain 1: EEDDYTAYAPLTCYFT
chain 2: FPMFKRGRCLCIGPGVKAVKVADIEKASIMYPSNNCDKIEVIITLKENKGQRCLNPKSKQARLIIKKVERKNF

Variants of: B1
CONDITIONS_USED: with CXCL11 (biotinylated, synthetic); scale: log2
Where enrichment equals or exceeds -4, the correct label is class 1; where it does not, the label is class 0.

Use the examples below as a reference point.
- SEQUENCE_TEXT: "chain 1 EEDDYTCYAPLTCYFT [chain 1 A7C]"
  ASSIGNED_CATEGORY: "class 0"
- SEQUENCE_TEXT: "chain 1 EEDDYTAYDPLTCYFT [chain 1 A9D]"
  ASSIGNED_CATEGORY: "class 0"
- SEQUENCE_TEXT: "chain 1 EEDDYTAYAPLTRYFT [chain 1 C13R]"
  ASSIGNED_CATEGORY: "class 0"
- SEQUENCE_TEXT: "chain 1 EEDDRTAYAPLTCYFT [chain 1 Y5R]"
  ASSIGNED_CATEGORY: "class 0"
- SEQUENCE_TEXT: "chain 1 ERDDYTAYAPLTCYFT [chain 1 E2R]"
  ASSIGNED_CATEGORY: "class 0"
- SEQUENCE_TEXT: "chain 1 EEDDYTAYAPETCYFT [chain 1 L11E]"
  ASSIGNED_CATEGORY: "class 0"
- SEQUENCE_TEXT: "chain 1 EEDDYTAYAPLTGYFT [chain 1 C13G]"
  ASSIGNED_CATEGORY: "class 0"
- SEQUENCE_TEXT: "chain 1 EEDGYTAYAPLTCYFT [chain 1 D4G]"
  ASSIGNED_CATEGORY: "class 1"
- SEQUENCE_TEXT: "chain 1 EEDDYTAYAPLTCIFT [chain 1 Y14I]"
  ASSIGNED_CATEGORY: "class 0"
- SEQUENCE_TEXT: "chain 1 EEDDYTAYAPLTKYFT [chain 1 C13K]"
  ASSIGNED_CATEGORY: "class 0"

Incoming: Say whether chain 1 EEDDYTAYAPLTCSFT [chain 1 Y14S] shows enrichment of -4 or more.
Outgoing: class 0

Incoming: Do the same for chain 1 EEDDYTAYCPLTCYFT [chain 1 A9C] please
Outgoing: class 0

Incoming: Do the same for chain 1 EEDDYTAEAPLTCYFT [chain 1 Y8E] please
Outgoing: class 1

Incoming: Do the same for chain 1 EEKDYTAYAPLTCYFT [chain 1 D3K] please
Outgoing: class 1

Incoming: Do the same for chain 1 EEDHYTAYAPLTCYFT [chain 1 D4H] please
Outgoing: class 0

Incoming: Do the same for chain 1 EEDDYTAYACLTCYFT [chain 1 P10C] please
Outgoing: class 0

Incoming: Do the same for chain 1 EEDAYTAYAPLTCYFT [chain 1 D4A] please
Outgoing: class 0

Incoming: Do the same for chain 1 EEDDYTAYAPLTCRFT [chain 1 Y14R] please
Outgoing: class 0

Incoming: Do the same for chain 1 EEDEYTAYAPLTCYFT [chain 1 D4E] please
Outgoing: class 1

Incoming: Do the same for chain 1 EEDDYTAYAPQTCYFT [chain 1 L11Q] please
Outgoing: class 1

Incoming: Do the same for chain 1 EEDDKTAYAPLTCYFT [chain 1 Y5K] please
Outgoing: class 1
